- system: HLA-B*08:01
- assay_info: IEDB peptide-MHC binding, purified MHC/competitive/fluorescence; filed as Kd, often an IC50 or EC50 that approximates it; bounds were set here for any values at or beyond the usual limits of such assays
- condition_context: source organism: Human immunodeficiency virus 1
readout_kind: Kd

// query Item under review: VLYCVHQRV . Reported Kd?
// result ≥ 20 µM

====

- system: HLA-A*69:01
- assay_info: IEDB peptide-MHC binding, purified MHC/direct/fluorescence; filed as Kd, often an IC50 or EC50 that approximates it; bounds were set here for any values at or beyond the usual limits of such assays
- condition_context: source organism: Haemophilus influenzae
pKd: −log10 of the molar value.
readout_kind: pKd

// query Can you share its pKd? I mean this sequence: LAEQFSGEY
// result ≤ 4.70

====

- system: HLA-A*02:06
- assay_info: IEDB peptide-MHC binding, purified MHC/competitive/radioactivity; filed as Kd, often an IC50 or EC50 that approximates it; bounds were set here for any values at or beyond the usual limits of such assays
- condition_context: source organism: Mammarenavirus brazilense
readout_kind: pKd
Scale for pKd: -log10 of concentration given in mol/L; no unit attached.

// query Fill in: pKd of LSNCVHPAV is ___
// result 6.34

====

Give pKd for every item shown.
- system: HLA-B*27:05
- assay_info: IEDB peptide-MHC binding, purified MHC/direct/fluorescence; filed as Kd, often an IC50 or EC50 that approximates it; bounds were set here for any values at or beyond the usual limits of such assays
- condition_context: source organism: Escherichia coli O157:H7
pKd: −log10 of the molar value.

// query Report pKd for EEDAAVDDL please.
// result ≤ 4.70

// query Then this sequence: YECTSRHFT
// result ≤ 4.70

====

- system: HLA-B*15:42
- assay_info: IEDB peptide-MHC binding, purified MHC/competitive/fluorescence; filed as Kd, often an IC50 or EC50 that approximates it; bounds were set here for any values at or beyond the usual limits of such assays
- condition_context: source organism: Escherichia coli O157:H7 str. EDL933
readout_kind: Kd

// query Field request: Kd | item: RMMGVKYLM
// result ≥ 5 µM

====

- system: HLA-B*08:02
- assay_info: IEDB peptide-MHC binding, purified MHC/direct/fluorescence; filed as Kd, often an IC50 or EC50 that approximates it; bounds were set here for any values at or beyond the usual limits of such assays
- condition_context: source organism: Giardia lamblia ATCC 50803
pKd: −log10 of the molar value.
readout_kind: pKd

// query Which pKd value belongs to IARLVYKAR ?
// result ≤ 4.70

====

- system: HLA-A*01:01
- assay_info: IEDB peptide-MHC binding, purified MHC/direct/fluorescence; filed as Kd, often an IC50 or EC50 that approximates it; bounds were set here for any values at or beyond the usual limits of such assays
- condition_context: source organism: Corynebacterium glutamicum
readout_kind: pKd
Note: pKd values are expressed as the negative base-10 logarithm of concentration in M.

// query Please look up its pKd: ATQPVHWFL
// result 5.50

====

I'd appreciate it if you could supply Kd values for the items below.
- system: HLA-A*11:01
- assay_info: IEDB peptide-MHC binding, purified MHC/competitive/radioactivity; filed as Kd, often an IC50 or EC50 that approximates it; bounds were set here for any values at or beyond the usual limits of such assays
- condition_context: source organism: Dengue virus 1 Brazil/97-11/1997
Answer format: value, then unit.

// query Hi! What's the reported Kd for GIFTTNIWLK on HLA-A*11:01?
// result 12.5 nM

// query // repeat for SQLAKRFSK and report
// result 49.9 nM

====

- system: HLA-A*03:01
- assay_info: IEDB peptide-MHC binding, purified MHC/competitive/fluorescence; filed as Kd, often an IC50 or EC50 that approximates it; bounds were set here for any values at or beyond the usual limits of such assays
- condition_context: source organism: Homo sapiens
readout_kind: Kd

// query Give HLA-A*03:01 Kd for SQLPPACPV
// result ≥ 20 µM

====

- system: HLA-B*51:01
- assay_info: IEDB peptide-MHC binding, purified MHC/competitive/radioactivity; filed as Kd, often an IC50 or EC50 that approximates it; bounds were set here for any values at or beyond the usual limits of such assays
- condition_context: source organism: Dengue virus 2 Jamaica/1409/1983
readout_kind: Kd (µM)
Please reply with the bare figure in µM and do not write the unit itself.

// query Look up Kd: FPQSNAPIM
// result 0.632

// query // query: MAISGDDCVV
// result 4.86

====

- system: HLA-A*11:01
- assay_info: IEDB peptide-MHC binding, purified MHC/direct/fluorescence; filed as Kd, often an IC50 or EC50 that approximates it; bounds were set here for any values at or beyond the usual limits of such assays
- condition_context: source organism: Influenza A virus (A/duck/Mongolia/47/2001(H7N1))
readout_kind: Kd

// query What reported Kd corresponds to FLKDVMESM on HLA-A*11:01?
// result ≥ 20 µM

====

- system: HLA-B*44:02
- assay_info: IEDB peptide-MHC binding, purified MHC/competitive/radioactivity; filed as Kd, often an IC50 or EC50 that approximates it; bounds were set here for any values at or beyond the usual limits of such assays
- condition_context: source organism: Dengue virus 1 Brazil/97-11/1997
readout_kind: pKd
To interpret pKd, take it as minus log10 of a concentration measured in moles per litre.

// query Reported pKd for MEVDRSEAK : what is it?
// result 5.10

// query Follow-up entry: FEKQLGQIM
// result 5.59

// query Entry to check: SEKNETWKL
// result 6.82

// query Cool, now AGILARWSSF
// result 5.29

====

- system: HLA-A*11:01
- assay_info: IEDB peptide-MHC binding, purified MHC/direct/fluorescence; filed as Kd, often an IC50 or EC50 that approximates it; bounds were set here for any values at or beyond the usual limits of such assays
- condition_context: source organism: Dengue virus 1 Singapore/S275/1990
readout_kind: pKd
// pKd: -log10(molar conc.)

// query # get_value(readout='pKd', item= KTFDTEYQK )
// result 7.90

====

- system: HLA-A*31:01
- assay_info: IEDB peptide-MHC binding, purified MHC/competitive/fluorescence; filed as Kd, often an IC50 or EC50 that approximates it; bounds were set here for any values at or beyond the usual limits of such assays
- condition_context: source organism: dengue virus type 1
readout_kind: Kd (nM)
Could you give me the number in nM? Just the number is fine.

// query Name the reported Kd value associated with the sequence KTFDTEYQK
// result 128

====

- system: HLA-A*33:01
- assay_info: IEDB peptide-MHC binding, purified MHC/competitive/radioactivity; filed as Kd, often an IC50 or EC50 that approximates it; bounds were set here for any values at or beyond the usual limits of such assays
- condition_context: source organism: Mammarenavirus machupoense
readout_kind: Kd

// query Data request, read-out Kd, for EKFGHLCKYH
// result ≥ 70 µM

====

- system: HLA-B*48:01
- assay_info: IEDB peptide-MHC binding, purified MHC/direct/fluorescence; filed as Kd, often an IC50 or EC50 that approximates it; bounds were set here for any values at or beyond the usual limits of such assays
- condition_context: source organism: Escherichia coli O157:H7
So I've got a bunch of sequences here, and I need their Kd values.

// query Record request: Kd value, item EEDAAVDDL
// result ≥ 20 µM

// query Repeat with YECTSRHFT
// result ≥ 20 µM

====

- system: HLA-A*02:02
- assay_info: IEDB peptide-MHC binding, purified MHC/competitive/radioactivity; filed as Kd, often an IC50 or EC50 that approximates it; bounds were set here for any values at or beyond the usual limits of such assays
- condition_context: source organism: Hepacivirus hominis
readout_kind: Kd (nM)
Quick reminder: number only, in nM, skip the unit.

// query Need Kd of KLSGLGFNAV , thanks.
// result 5.4

====

- system: HLA-A*31:01
- assay_info: IEDB peptide-MHC binding, purified MHC/competitive/radioactivity; filed as Kd, often an IC50 or EC50 that approximates it; bounds were set here for any values at or beyond the usual limits of such assays
- condition_context: source organism: Mammarenavirus lassaense
readout_kind: Kd (µM)
Entry rule: numbers only, all in µM.

// query Given the entry TCQGSDDIKK , report its measured Kd.
// result 6.33

====

- system: HLA-A*69:01
- assay_info: IEDB peptide-MHC binding, purified MHC/competitive/fluorescence; filed as Kd, often an IC50 or EC50 that approximates it; bounds were set here for any values at or beyond the usual limits of such assays
- condition_context: source organism: Escherichia coli E110019
readout_kind: Kd

// query Kd lookup needed for RAFWGQVQK , thanks.
// result ≥ 20 µM

====

- system: HLA-A*24:03
- assay_info: IEDB peptide-MHC binding, purified MHC/direct/fluorescence; filed as Kd, often an IC50 or EC50 that approximates it; bounds were set here for any values at or beyond the usual limits of such assays
- condition_context: source organism: Yersinia pestis
readout_kind: pKd
The meaning of pKd here: minus log10 of the concentration in molar units.

// query Suppose we examine the sequence RYQRMTGGY ; what pKd value has been reported?
// result 8.21
